Target: Aminopeptidase N (Plasmodium falciparum FcB1/Columbia)
Sequence (whole entry): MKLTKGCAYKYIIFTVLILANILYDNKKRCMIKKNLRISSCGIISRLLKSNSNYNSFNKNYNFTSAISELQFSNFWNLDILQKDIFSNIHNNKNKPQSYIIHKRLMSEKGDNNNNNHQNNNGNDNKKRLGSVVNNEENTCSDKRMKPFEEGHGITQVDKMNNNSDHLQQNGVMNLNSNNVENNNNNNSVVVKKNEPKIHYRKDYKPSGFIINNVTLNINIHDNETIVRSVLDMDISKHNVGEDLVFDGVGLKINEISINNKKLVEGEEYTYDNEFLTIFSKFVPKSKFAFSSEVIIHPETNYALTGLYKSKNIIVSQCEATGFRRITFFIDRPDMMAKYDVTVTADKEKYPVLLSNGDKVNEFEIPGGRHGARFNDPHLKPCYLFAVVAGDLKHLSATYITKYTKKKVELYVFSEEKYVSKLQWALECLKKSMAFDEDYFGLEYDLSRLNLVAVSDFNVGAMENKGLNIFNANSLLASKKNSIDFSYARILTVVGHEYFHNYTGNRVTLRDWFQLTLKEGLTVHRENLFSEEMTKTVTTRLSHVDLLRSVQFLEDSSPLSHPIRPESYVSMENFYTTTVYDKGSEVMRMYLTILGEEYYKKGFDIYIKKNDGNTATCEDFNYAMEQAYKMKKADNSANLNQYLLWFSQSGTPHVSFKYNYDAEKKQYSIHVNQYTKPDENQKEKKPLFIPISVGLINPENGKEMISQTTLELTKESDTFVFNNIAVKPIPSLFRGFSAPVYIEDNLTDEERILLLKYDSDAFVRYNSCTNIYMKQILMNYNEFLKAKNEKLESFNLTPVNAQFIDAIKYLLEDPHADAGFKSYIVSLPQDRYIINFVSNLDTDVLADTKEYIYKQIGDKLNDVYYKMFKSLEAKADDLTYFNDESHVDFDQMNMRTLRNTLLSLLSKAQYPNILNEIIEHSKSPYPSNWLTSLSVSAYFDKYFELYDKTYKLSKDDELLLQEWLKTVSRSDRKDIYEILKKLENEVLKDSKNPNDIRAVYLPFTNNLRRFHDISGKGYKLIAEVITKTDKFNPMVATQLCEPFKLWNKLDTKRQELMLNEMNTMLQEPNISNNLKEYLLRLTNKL
Assay: Inhibition of Plasmodium falciparum FcB1 M1 aminopeptidase at 10 uM
inhibition listing for selected compounds.
Value expressed in %; do not type the unit.

Illustrative cases are given below, each with its answer.
{"compound": "O=C(CC(=O)NCc1ccccc1)NO", "val": 2}
{"compound": "O=C(NO)C(Cc1ccccc1)C(=O)N1CCC(Cc2ccccc2)CC1 (stereo unspecified)", "val": 92}
{"compound": "O=C(CC(=O)NCc1ccc(Cl)cc1)NO", "val": 10}
{"compound": "CC(C)CC(C(=O)NO)C(=O)NCCNc1cccc2ccccc12 (stereo unspecified)", "val": 42}
{"compound": "NC(C(=O)NO)C(=O)NC1Cc2ccccc2C1 (stereo unspecified)", "val": 20}

Shift focus to the following entry.
Item O=C(NO)C(Cc1cccc(Oc2ccccc2)c1)C(=O)NCCC(c1ccccc1)c1ccccc1 (stereo unspecified) has what recorded inhibition?
50

---

Target: Aminopeptidase N (Sus scrofa) (UniProt P15145)
Sequence (whole entry): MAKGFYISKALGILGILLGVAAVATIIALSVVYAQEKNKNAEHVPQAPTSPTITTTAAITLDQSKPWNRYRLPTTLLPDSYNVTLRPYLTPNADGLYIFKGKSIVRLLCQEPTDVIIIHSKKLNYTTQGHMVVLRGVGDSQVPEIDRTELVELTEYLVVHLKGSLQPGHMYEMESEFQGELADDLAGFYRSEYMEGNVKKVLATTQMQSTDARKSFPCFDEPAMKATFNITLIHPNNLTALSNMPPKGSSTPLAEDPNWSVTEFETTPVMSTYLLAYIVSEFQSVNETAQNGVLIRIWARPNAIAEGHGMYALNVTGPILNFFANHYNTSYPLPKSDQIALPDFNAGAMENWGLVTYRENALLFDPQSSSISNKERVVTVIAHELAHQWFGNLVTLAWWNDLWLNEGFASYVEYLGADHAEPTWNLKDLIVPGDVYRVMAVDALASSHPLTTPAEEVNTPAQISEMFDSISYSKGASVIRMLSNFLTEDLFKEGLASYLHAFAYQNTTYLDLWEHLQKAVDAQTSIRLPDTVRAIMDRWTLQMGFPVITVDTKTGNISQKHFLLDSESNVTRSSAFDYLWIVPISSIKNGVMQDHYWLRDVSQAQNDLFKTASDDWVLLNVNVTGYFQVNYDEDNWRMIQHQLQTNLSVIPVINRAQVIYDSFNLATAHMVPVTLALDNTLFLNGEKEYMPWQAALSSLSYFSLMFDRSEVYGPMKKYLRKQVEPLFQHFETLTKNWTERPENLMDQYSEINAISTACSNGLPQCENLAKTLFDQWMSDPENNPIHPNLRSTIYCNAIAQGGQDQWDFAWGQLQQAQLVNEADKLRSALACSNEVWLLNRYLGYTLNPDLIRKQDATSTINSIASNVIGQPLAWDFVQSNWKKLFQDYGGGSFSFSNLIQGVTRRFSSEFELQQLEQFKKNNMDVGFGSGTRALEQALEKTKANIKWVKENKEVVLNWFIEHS
Assay: Inhibition of pig kidney microsomal APN at 10 uM
reported-metric: inhibition (%)
Value expressed in %; do not type the unit.

{"compound": "NC(C(=O)NO)C(=O)N[C@H]1CCN(Cc2ccccc2)C1 (stereo not given in full)", "inhibition [%]": 37}

Item Cc1ccccc1CNC(=O)CC(=O)NO has what recorded inhibition?
17

# iterate: CC(C)CC(C(=O)NO)C(=O)NCCC(c1ccccc1)c1ccccc1 (stereo not given)
102

# iterate: O=C(CC(=O)NCc1ccc(C(F)(F)F)cc1)NO
40

# iterate: O=C(NO)C(Cc1cccc(Oc2ccccc2)c1)C(=O)N1CCc2ccccc2C1 (stereo not given)
84

---

target: Aminopeptidase N (Plasmodium falciparum FcB1/Columbia); assay: Inhibition of Plasmodium falciparum FcB1 M1 aminopeptidase at 10 uM
Class assignment keyed on inhibition, ranges bucket 1: < 20%; bucket 2: ≥ 20% and < 60%; bucket 3: ≥ 60%

Field: example entries. Status: answers known.
{"molecule": "CC(C)CC(C(=O)NO)C(=O)N1CCC2(CC1)C(=O)NCN2c1ccccc1 (centres undefined)", "qualitative-label": "bucket 1"}
{"molecule": "CC(C)CC(C(=O)NO)C(=O)N1CCN(Cc2ccc3c(c2)OCO3)CC1 (centres undefined)", "qualitative-label": "bucket 2"}
{"molecule": "O=C(NO)C(Cc1cccc(Oc2ccccc2)c1)C(=O)N1CCN(Cc2ccccc2)CC1 (centres undefined)", "qualitative-label": "bucket 3"}

Field: class (inhibition) — entry: CC(C)CC(C(=O)NO)C(=O)NCc1ccc(F)cc1 (centres undefined)
bucket 3

# iterate: O=C(CC(=O)NCc1cccc(Oc2ccccc2)c1)NO
bucket 2

# iterate: O=C(CC(=O)NCCC(c1ccccc1)c1ccccc1)NO
bucket 2

# iterate: CC(C)CC(C(=O)NO)C(=O)NCCC(c1ccccc1)c1ccccc1 (centres undefined)
bucket 3

# iterate: O=C(NO)C(Cc1cccc(Oc2ccccc2)c1)C(=O)NCc1ccc(C(F)(F)F)cc1 (centres undefined)
bucket 3

---

biological target: UniProt P15145; experiment: Inhibition of pig kidney microsomal APN at 10 uM
inhibition listing for selected compounds.
Value expressed in %; do not type the unit.

Illustrative cases are given below, each with its answer.
{"compound": "CC(C)CC(C(=O)NO)C(=O)N1CCN(c2ccccc2)CC1 (stereo unspecified)", "assayed-target": "UniProt P15145", "inhibition (%)": 103}
{"compound": "CC(C)CN(CCCCc1ccccc1)C(=O)C(Cc1cccc(Oc2ccccc2)c1)C(=O)NO (stereo unspecified)", "assayed-target": "UniProt P15145", "inhibition (%)": 52}
{"compound": "CN(Cc1ccccc1)C(=O)C(N)C(=O)NO (stereo unspecified)", "assayed-target": "UniProt P15145", "inhibition (%)": 29}
{"compound": "CC(C)CC(C(=O)NO)C(=O)N1CCN(Cc2ccccc2)CC1 (stereo unspecified)", "assayed-target": "UniProt P15145", "inhibition (%)": 28}
{"compound": "NC(C(=O)NO)C(=O)NCc1ccc(C(F)(F)F)cc1 (stereo unspecified)", "assayed-target": "UniProt P15145", "inhibition (%)": 55}

Shift focus to the following entry.
Checklist item: inhibition tested on UniProt P15145, entry O=C(NO)C(Cc1cccc(Oc2ccccc2)c1)C(=O)N1CCC2(CCNc3ccccc3O2)CC1 (stereo unspecified) , value?
81

---

molecular target: Aminopeptidase N (Sus scrofa); experiment: Inhibition of pig kidney microsomal APN at 10 uM
inhibition listing for selected compounds.
Value expressed in %; do not type the unit.

Item O=C(NO)C(Cc1ccccc1)C(=O)NCCC(c1ccccc1)c1ccccc1 (centres undefined) has what recorded inhibition?
83

# iterate: O=C(NO)C(Cc1ccccc1)C(=O)N1CCC2(CC1)C(=O)NCN2c1ccccc1 (centres undefined)
22

# iterate: NC(C(=O)NO)C(=O)N1CCN(c2ccccc2)CC1 (centres undefined)
11

# iterate: O=C(CC(=O)NC1CCN(Cc2ccccc2)CC1)NO
14

# iterate: O=C(NO)C(Cc1ccccc1)C(=O)NCc1cccc(-c2ccccc2)c1 (centres undefined)
90

# iterate: O=C(CC(=O)NCCNc1cccc2ccccc12)NO
14

# iterate: CC(C)CC(C(=O)NO)C(=O)NC1Cc2ccccc2C1 (centres undefined)
93
